Target chain: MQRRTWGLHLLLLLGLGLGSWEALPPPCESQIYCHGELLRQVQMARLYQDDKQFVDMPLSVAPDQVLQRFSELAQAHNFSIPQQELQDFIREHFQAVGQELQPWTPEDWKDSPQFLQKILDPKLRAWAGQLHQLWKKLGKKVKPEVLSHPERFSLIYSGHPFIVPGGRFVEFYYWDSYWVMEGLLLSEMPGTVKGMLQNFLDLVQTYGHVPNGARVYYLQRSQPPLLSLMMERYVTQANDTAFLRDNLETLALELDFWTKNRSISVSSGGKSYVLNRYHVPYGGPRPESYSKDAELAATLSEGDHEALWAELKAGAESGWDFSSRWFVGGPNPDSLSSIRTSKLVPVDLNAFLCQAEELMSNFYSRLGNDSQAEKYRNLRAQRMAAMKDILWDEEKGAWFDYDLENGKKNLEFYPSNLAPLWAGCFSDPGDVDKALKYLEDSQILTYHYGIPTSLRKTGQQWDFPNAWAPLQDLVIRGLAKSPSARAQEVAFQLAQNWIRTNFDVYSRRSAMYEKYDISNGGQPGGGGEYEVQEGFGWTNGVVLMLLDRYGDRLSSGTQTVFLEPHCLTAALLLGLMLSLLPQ
Measured Parameter: pIC50
Answers are plain numbers, as −log10 of the molar value.

Reported pIC50 for "OC[C@H]1NC[C@@H](O)[C@@H]1O" : what is it?
5.60
